assay_method_text: activity coefficient (dimensionless); of the first substance listed, at infinite dilution; xn = mol fraction of the nth substance listed
test_conditions: 323.15 K; Liquid; x1 = 0
result_type: activity coefficient
Please reply with the number alone, leaving off any unit.

- compound: "CCCCCC [hexane] + CCCCCCn1cc[n+](C)c1.F[P-](F)(F)(F)(F)F"
  activity coefficient: 15

Any idea what its activity coefficient is? The compound is CO [methanol] + CCCCCCn1cc[n+](C)c1.F[P-](F)(F)(F)(F)F
1.44

What does the record list as activity coefficient for CCCCCCC [heptane] + CCCCCCn1cc[n+](C)c1.F[P-](F)(F)(F)(F)F ?
22.2

Consider the compound C=CCCCCCC [oct-1-ene] + CCCCCCn1cc[n+](C)c1.F[P-](F)(F)(F)(F)F and give its measured activity coefficient.
18
